system: Klebsiella aerogenes DSM 30053; assay: fold change of Histamine concentration vs plate DMSO controls (fold change (ratio)); higher = more amine produced, active = hit call of the paper (significant change in both replicates, either direction); settings: incubation time: 27 h, anaerobic, 37 °C
Counter-ions that a name gives are not always drawn.
property.measured: fold change of Histamine concentration

compound="NC(=O)[C@@H]1CCCN1C(=O)[C@H](Cc1c[nH]cn1)NC(=O)[C@@H]1CCC(=O)N1 [Thyrotropin-Releasing Hormone] (20 µM)" test_target="Klebsiella aerogenes DSM 30053" measurement=0.966
compound="CN[C@@H]1[C@@H](O[C@H]2O[C@H](CO)[C@@H](N)[C@H](O)[C@H]2O)OC2C[C@@H](N)[C@@H](O[C@H]3[C@H](O)[C@@H](O)[C@H](N)C[C@@H]3N)OC2[C@@H]1O (stereo partly specified) [Apramycin] (20 µM)" test_target="Klebsiella aerogenes DSM 30053" measurement=1.05
compound="CCN(CC)CCOC(=O)C(c1ccccc1)C1CCCCC1 (stereo unspecified) [Drofenine hydrochloride] (20 µM)" test_target="Klebsiella aerogenes DSM 30053" measurement=1.03
compound="C[C@]12C=CC(=O)C=C1CC[C@@H]1[C@@H]2C(=O)C[C@@]2(C)[C@H]1CC[C@]2(O)C(=O)CO [Prednisone] (20 µM)" test_target="Klebsiella aerogenes DSM 30053" measurement=0.861
compound="CN(c1nccc(=O)[nH]1)C1CCN(c2nc3ccccc3n2Cc2ccc(F)cc2)CC1 [Mizolastine] (20 µM)" test_target="Klebsiella aerogenes DSM 30053" measurement=1.03
compound="O=C(O)c1cc(/N=N/c2ccc(S(=O)(=O)Nc3ccccn3)cc2)ccc1O [Sulfasalazine] (20 µM)" test_target="Klebsiella aerogenes DSM 30053" measurement=0.971

* * *

tested on: Ruminococcus gnavus DSM 108212; test: fold change of 2-Phenylethylamine concentration vs plate DMSO controls (fold change (ratio)); higher = more amine produced, active = hit call of the paper (significant change in both replicates, either direction); conditions: incubation time: 27 h, anaerobic, 37 °C
Counter-ions that a name gives are not always drawn.
Criterion: fold change of 2-Phenylethylamine concentration meeting or surpassing 0.9. Met: 1 (yes). Not met: 0 (no).

molecule="Oc1c(Cl)cc(Cl)c2cccnc12 [Chloroxine] (20 µM)" label="0 (no)"
molecule="COc1ccc(Cl)cc1C(=O)NCCc1ccc(S(=O)(=O)NC(=O)NC2CCCCC2)cc1 [Glibenclamide] (20 µM)" label="1 (yes)"
molecule="O=C1[C@H](CC[C@H](O)c2ccc(F)cc2)[C@@H](c2ccc(O)cc2)N1c1ccc(F)cc1 [Ezetimibe] (20 µM)" label="0 (no)"
molecule="CCN(CC)CCOC(=O)C1(c2ccc([N+](=O)[O-])cc2)CCCC1 [Nitrocaramiphen hydrochloride] (20 µM)" label="1 (yes)"
molecule="CS(=O)(=O)c1ccc([C@@H](O)[C@@H](CF)NC(=O)C(Cl)Cl)cc1 [Florfenicol] (20 µM)" label="0 (no)"
molecule="O=C(CCCN1CCN(c2ccccn2)CC1)c1ccc(F)cc1 [Azaperone] (20 µM)" label="1 (yes)"
molecule="Cc1onc(-c2c(Cl)cccc2Cl)c1C(=O)N[C@@H]1C(=O)N2[C@@H]1SC(C)(C)[C@@H]2C(=O)O [Dicloxacillin sodium salt hydrate] (20 µM)" label="0 (no)"
molecule="C#C[C@]1(O)CC[C@H]2[C@@H]3[C@H](C)CC4=C(CCC(=O)C4)[C@H]3CC[C@@]21C [Tibolone] (20 µM)" label="1 (yes)"
molecule="CC(C)NCC(O)COc1cccc2[nH]ccc12 (stereo not given) [Pindolol] (20 µM)" label="1 (yes)"
molecule="CN(C)[C@@H]1C(=O)C(C(N)=O)=C(O)[C@@]2(O)C(=O)C3=C(O)c4c(O)ccc(Cl)c4[C@@H](O)[C@H]3C[C@@H]12 [Demeclocycline hydrochloride] (20 µM)" label="0 (no)"
molecule="Nc1ccc(S(=O)(=O)Nc2nccs2)cc1 [Sulfathiazole] (20 µM)" label="1 (yes)"
molecule="Cc1cc2c(s1)Nc1ccccc1N=C2N1CCN(C)CC1 [Olanzapine] (20 µM)" label="1 (yes)"
molecule="OC[C@@H](O)[C@@H](O[C@@H]1O[C@H](CO)[C@H](O)[C@H](O)[C@H]1O)[C@H](O)[C@@H](O)CO [Lactitol] (50 µM)" label="0 (no)"
molecule="CC(CCc1ccccc1)NCC(O)c1ccc(O)c(C(N)=O)c1 (stereo not given) [Labetalol hydrochloride] (20 µM)" label="1 (yes)"
molecule="Cc1ccc(S(=O)(=O)NC(=O)NN2CC3CCCC3C2)cc1 (stereo not given) [Gliclazide] (20 µM)" label="1 (yes)"
molecule="OC[C@H]1O[C@@H](O[C@H]2[C@H](O)[C@@H](O)[C@H](O)O[C@@H]2CO)[C@H](O)[C@@H](O)[C@H]1O [Lactose] (50 µM)" label="1 (yes)"
molecule="CC[N+]1(CC)CCC(=C(c2ccccc2)c2ccccc2)C1C (stereo not given) [Prifinium Bromide] (20 µM)" label="0 (no)"
molecule="CCN(CC)CCOC(=O)C(c1ccccc1)c1ccccc1 [Adiphenine hydrochloride] (20 µM)" label="1 (yes)"
molecule="CC(C)NC[C@@H](O)COc1ccc(CC(N)=O)cc1 [(R,+) Atenolol] (20 µM)" label="1 (yes)"
molecule="CC(CN(C)C)CN1c2ccccc2Sc2ccccc21 (stereo not given) [Trimeprazine tartrate] (20 µM)" label="0 (no)"
molecule="Cc1cc(-n2c(=O)[nH]c(=O)n(C)c2=O)ccc1Oc1ccc(SC(F)(F)F)cc1 [Toltrazuril] (20 µM)" label="0 (no)"
molecule="CN(C/C=C/C#CC(C)(C)C)Cc1cccc2ccccc12 [Terbinafine] (20 µM)" label="1 (yes)"
molecule="CCCN(CCC)C(=O)C(CCC(=O)O)NC(=O)c1ccccc1 (stereo not given) [Proglumide] (20 µM)" label="1 (yes)"
molecule="CN1Cc2c(N)cccc2C(c2ccccc2)C1 (stereo not given) [Nomifensine maleate] (20 µM)" label="1 (yes)"
molecule="C[C@H](O)C(=O)Nc1c(I)c(C(=O)NC(CO)CO)c(I)c(C(=O)NC(CO)CO)c1I [Iopamidol] (20 µM)" label="1 (yes)"
molecule="CN[C@@H]1[C@H](O[C@H]2[C@H](O[C@H]3[C@H](O)[C@@H](O)[C@H](NC(=N)N)[C@@H](O)[C@@H]3NC(=N)N)O[C@@H](C)[C@]2(O)CO)O[C@@H](CO)[C@H](O)[C@H]1O [Dihydrostreptomycin sulfate] (20 µM)" label="1 (yes)"
molecule="CO/N=C(\\C(=O)N[C@@H]1C(=O)N2C(C(=O)O)=C(COC(C)=O)CS[C@H]12)c1csc(N)n1 [Cefotaxime sodium salt] (20 µM)" label="0 (no)"

* * *

tested on: Klebsiella aerogenes DSM 30053; test: fold change of Cadaverine concentration vs plate DMSO controls (fold change (ratio)); higher = more amine produced, active = hit call of the paper (significant change in both replicates, either direction); settings: incubation time: 27 h, anaerobic, 37 °C
Structures can show the parent of a compound that is named as a salt.
property.measured: fold change of Cadaverine concentration

molecule="C(=C\\c1ccccc1)/CN1CCN(C(c2ccccc2)c2ccccc2)CC1 [Cinnarizine] (20 µM)" measurement=1
molecule="CC(C)(S)C(N)C(=O)O (racemic) [D,L-Penicillamine] (20 µM)" measurement=0.974
molecule="C[C@H](O)C(=O)Nc1c(I)c(C(=O)NC(CO)CO)c(I)c(C(=O)NC(CO)CO)c1I [Iopamidol] (20 µM)" measurement=1.01
molecule="C=CCSCC1Nc2cc(Cl)c(S(N)(=O)=O)cc2S(=O)(=O)N1 (configuration not stated) [Althiazide] (20 µM)" measurement=1.12
molecule="C[C@H](CS)C(=O)N1CCC[C@H]1C(=O)O [Captopril] (20 µM)" measurement=1
molecule="COc1ccc(OC)c(C(O)CNC(=O)CN)c1 (configuration not stated) [Midodrine hydrochloride] (20 µM)" measurement=0.995
molecule="CCCNCC(O)COc1ccccc1C(=O)CCc1ccccc1 (configuration not stated) [Propafenone hydrochloride] (20 µM)" measurement=1.02
molecule="Oc1ccc(OCc2ccccc2)cc1 [Monobenzone] (20 µM)" measurement=0.996
molecule="CO[C@@]1(NC(=O)CSCC#N)C(=O)N2C(C(=O)O)=C(CSc3nnnn3C)CS[C@@H]21 [Cefmetazole sodium salt] (20 µM)" measurement=1.03
molecule="CC(C)c1ccc2oc3nc(N)c(C(=O)O)cc3c(=O)c2c1 [Amlexanox] (20 µM)" measurement=1.03
molecule="N[C@@H](Cc1cc(I)c(Oc2ccc(O)c(I)c2)c(I)c1)C(=O)O [Liothyronine] (20 µM)" measurement=0.993
molecule="Cc1ccccc1C(OCCN(C)C)c1ccccc1 (configuration not stated) [Orphenadrine hydrochloride] (20 µM)" measurement=1.03
molecule="NC[C@H]1CC[C@H](C(=O)O)CC1 [Tranexamic acid] (20 µM)" measurement=1.01
molecule="CN1CCN(CCCN2c3ccccc3Sc3ccc(Cl)cc32)CC1 [Prochlorperazine dimaleate] (20 µM)" measurement=1.02
molecule="c1ccc(-c2ccc(C(c3ccccc3)n3ccnc3)cc2)cc1 (configuration not stated) [Bifonazole] (20 µM)" measurement=1
molecule="C#CCN(C)Cc1ccccc1 [Pargyline hydrochloride] (20 µM)" measurement=1.01
molecule="CCOC(=O)C1=C(COCCN)NC(C)=C(C(=O)OC)C1c1ccccc1Cl (configuration not stated) [Amlodipine] (20 µM)" measurement=0.988
